Test: Quantitative High-Throughput drug screen in 47 multiple myeloma cell lines against the NCATS MIPE library collection: OCIMY7_PLB cell viability assay (AID 1918987); further: potency means the concentration at half of the fitted maximal effect; nearly all actives have a fitted effect of over 65% in size
Details: OCI-MY7 myeloma viability, CellTiter-Glo ATP, 48 h
Results filed as inconclusive are left out. Calls of active or inactive are those of the source. The call rests on the fitted dose curve; in most records, active means well fitted cell-killing curve with a large enough effect; inconclusive means small, poorly fitted or top-dose-only effect, or effect the other way; inactive means no such curve, though single readings can be large or run the other way.
property.measured: Potency

1) COC(=O)Nc1ccc(-c2nc(N3CCOCC3)c3cnn(C4CCN(C(=O)OC)CC4)c3n2)cc1
23.5 nM (active)
2) O=C(Nc1ncc(SCCN2CCCC2)s1)[C@]1(c2ccc(S(=O)(=O)C3CC3)cc2)C[C@@H]1C1CCCCC1
18700 nM (active)
3) CCN(CCO)CCCOc1ccc2c(Nc3cc(CC(=O)Nc4cccc(F)c4)[nH]n3)ncnc2c1
1050 nM (active)
4) Cc1ccccc1-n1c(Cn2nc(-c3cccc(O)c3)c3c(N)ncnc32)nc2cccc(C)c2c1=O
2960 nM (active)
5) C[C@@H]1CC=CC=CC=CC=C[C@@H](O[C@@H]2O[C@H](C)[C@@H](O)[C@H](N)[C@H]2O)C[C@@H]2O[C@](O)(C[C@@H](O)C[C@@H]3O[C@@H]3C=CC(=O)O1)C[C@H](O)[C@@H]2C(=O)O
2960 nM (active)

Task: Item "CSc1cccc(Nc2ncc3cc(-c4c(Cl)cccc4Cl)c(=O)n(C)c3n2)c1" : provide Potency
Output: 93.5 nM (active)
